These data points were gathered from patent US8778964B2.

Test system: recombinant guanylate cyclase reporter cell line
Assay: Action on recombinant guanylate cyclase reporter cell line (MEC)
Format: cell-based
Conditions: in some cases mean values obtained from individual determinations
Structures can show the parent of a compound that is named as a salt.
readout name: log10(minimal effective concentration) (log10 of the value in µM)
Log scale reminder: minimal effective concentration in µM, then log10 taken.

// query So what does the record say about log10(minimal effective concentration) for Cc1nc2c(OCc3c(F)cccc3F)cccn2c1C(=O)NC(CO)CC(F)(F)F (racemic) [Example 100, trifluoroacetate] ?
// result -1.52

---
// query So what does the record say about log10(minimal effective concentration) for Cc1nc2c(OCc3c(F)cccc3F)cccn2c1C(=O)N[C@@H](CO)Cc1ccccc1 ?
// result -0.52

// query So what does the record say about log10(minimal effective concentration) for CC[C@H](C)[C@@H](CO)NC(=O)c1c(C)nc2c(OCC3CCCCC3)cccn12 ?
// result 0.00

// query So what does the record say about log10(minimal effective concentration) for Cc1nc2c(OCc3c(F)cccc3F)cccn2c1C(=O)N[C@@H](CO)C(C)(C)O ?
// result 0.00

// query So what does the record say about log10(minimal effective concentration) for Cc1nc2c(OCc3c(F)cccc3F)cccn2c1C(=O)NC(CO)c1cccnc1 (racemic) ?
// result -0.52

// query So what does the record say about log10(minimal effective concentration) for Cc1nc2c(OCc3c(F)cccc3F)cccn2c1C(=O)NCCO ?
// result 0.00
